Below, each entry is listed with its recorded hERG current change (%, negative = inhibition) at 10uM.
biological target: human ether-à-go-go-related gene (hERG) potassium channel (human, UniProt Q12809); experiment: primary screen, population patch clamp on CHO cells stably expressing hERG; higher = less effect of the substance;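 note: peak tail current of the secondary pulse compared with the same well before compound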
Sequence (Q12809 whole entry, looked up): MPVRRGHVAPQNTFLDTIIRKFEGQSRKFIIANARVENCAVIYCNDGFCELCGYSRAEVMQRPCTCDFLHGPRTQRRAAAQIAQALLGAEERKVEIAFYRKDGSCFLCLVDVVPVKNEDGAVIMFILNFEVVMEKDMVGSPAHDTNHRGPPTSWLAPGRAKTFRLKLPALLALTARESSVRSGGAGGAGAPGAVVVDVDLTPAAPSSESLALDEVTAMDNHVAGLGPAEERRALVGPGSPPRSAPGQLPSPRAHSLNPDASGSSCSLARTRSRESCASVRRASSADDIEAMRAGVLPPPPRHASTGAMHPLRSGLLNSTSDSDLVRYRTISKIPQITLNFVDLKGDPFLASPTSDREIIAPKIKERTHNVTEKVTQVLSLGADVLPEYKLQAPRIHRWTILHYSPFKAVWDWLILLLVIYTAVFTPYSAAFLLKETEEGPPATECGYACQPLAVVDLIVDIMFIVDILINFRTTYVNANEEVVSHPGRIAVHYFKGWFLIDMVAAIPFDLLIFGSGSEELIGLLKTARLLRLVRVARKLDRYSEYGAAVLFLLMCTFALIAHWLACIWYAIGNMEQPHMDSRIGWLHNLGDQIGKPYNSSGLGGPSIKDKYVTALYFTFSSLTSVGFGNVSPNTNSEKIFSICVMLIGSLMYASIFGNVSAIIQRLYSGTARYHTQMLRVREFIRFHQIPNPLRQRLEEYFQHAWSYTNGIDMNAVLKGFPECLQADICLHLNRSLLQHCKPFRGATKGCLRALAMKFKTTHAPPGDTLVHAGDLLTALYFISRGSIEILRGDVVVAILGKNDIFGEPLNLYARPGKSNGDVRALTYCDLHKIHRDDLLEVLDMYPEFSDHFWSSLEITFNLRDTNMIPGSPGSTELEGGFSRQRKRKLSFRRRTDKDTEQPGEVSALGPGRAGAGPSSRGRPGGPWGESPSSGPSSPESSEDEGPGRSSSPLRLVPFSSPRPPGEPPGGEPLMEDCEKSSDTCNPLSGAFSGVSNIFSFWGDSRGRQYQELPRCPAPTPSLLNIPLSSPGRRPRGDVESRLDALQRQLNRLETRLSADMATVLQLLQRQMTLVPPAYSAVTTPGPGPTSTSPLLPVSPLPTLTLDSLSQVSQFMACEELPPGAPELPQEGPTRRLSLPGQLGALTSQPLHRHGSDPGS
Hit rate of the full screen: of about 310,000 compounds, about 14,000 (4.5%) showed an effect of 50% or more. The effect is printed as a negative number. For the sample, strong results were picked, then their nearest neighbours and some compounds at random.
Value expressed in %; do not type the unit.

# Compound, Measurement
records = [
    ("COc1ccc(CN(C(=O)c2cc3ccccc3oc2=O)C2CCS(=O)(=O)C2)cc1 (stereo not shown)", -18.9),
]

Ask | Could you share which hERG current change (%, negative = inhibition) at 10uM value was measured for `O=C(O)CCc1nc2ccccc2c(=O)[nH]1` ?
Reply | 38.7

Ask | Could you share which hERG current change (%, negative = inhibition) at 10uM value was measured for CC(C)c1ccc(CN(C(=O)c2cc3ccccc3oc2=O)C2CCS(=O)(=O)C2)cc1 (stereo not shown) ?
Reply | -62

Ask | Could you share which hERG current change (%, negative = inhibition) at 10uM value was measured for `C/C(=N\N1CCN(c2ccc(Cl)cc2)CC1)c1cccc([N+](=O)[O-])c1` ?
Reply | -12.4

Ask | Could you share which hERG current change (%, negative = inhibition) at 10uM value was measured for `C/C(=N/N1CCN(Cc2ccccc2)CC1)c1ccc(Br)cc1` ?
Reply | -19.9

Ask | Could you share which hERG current change (%, negative = inhibition) at 10uM value was measured for Cc1ccc(N(C(=O)c2cc3ccccc3oc2=O)C2C=CS(=O)(=O)C2)cc1 (stereo not shown) ?
Reply | -6.15
